target: TvSNAT (Thermoplasma volcanium, UniProt Q97CT7); experiment: HPLC of N-acetylserotonin, dose-dependent inhibition of serotonin acetylation; conditions: serotonin 0.5 mM; acetyl-CoA 0.5 mM; pH 8.8; 45 °C; suggested alternative substrate; 50% point read by authors, no fit; read-out: SNAT activity decreased to 50%
Sequence (Q97CT7 entry or part of it): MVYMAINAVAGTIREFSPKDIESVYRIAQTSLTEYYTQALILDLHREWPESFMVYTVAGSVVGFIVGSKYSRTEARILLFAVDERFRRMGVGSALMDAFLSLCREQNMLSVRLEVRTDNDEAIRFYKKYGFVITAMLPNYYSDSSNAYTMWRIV
value-type: IC50

> print(dat)
   chemical.string  recorded.result
1       NCCCCNCCCN          ~100 µM

Could you now look at the following compound, please?
I am curious: what IC50 value has been reported for NC[C@H](O)c1ccc(O)cc1 ? ~500 µM

The measurements presented in this section are drawn from paper PMC8945778.
